Cited source for all entries: ChEMBL document CHEMBL3826978

System: SH-SY5Y
protocol-text: Neuroprotective activity against oxygen glucose deprivation-induced neurotoxicity in human SH-SY5Y cells
Format: functional, cell-based
The source made the active and inactive calls. The rule behind the calls is not given here.
outcome-measure: Activity

COc1ccccc1[C@@H]1O[C@@H](C)Cn2c1c(C)c1ccccc12 :: inactive
Cc1c2n(c3ccccc13)C[C@H](C)O[C@H]2c1ccc(CC(C)C)cc1 :: inactive
Cc1ccccc1[C@H]1O[C@@H](C)Cn2c1c(C)c1ccccc12 :: inactive
Cc1cc(C)cc([C@@H]2O[C@@H](C)Cn3c2c(C)c2ccccc23)c1 :: inactive

Record Activity for all entries; do not skip any.
1. Cc1c2n(c3ccccc13)C[C@@H](C)O[C@H]2c1ccc(F)cc1
2. Cc1c2n(c3ccccc13)C[C@H](C)O[C@@H]2c1coc2ccccc2c1=O
3. Cc1c2n(c3ccccc13)C[C@H](C)O[C@@H]2c1ccc(C(C)(C)C)cc1
4. COc1cccc([C@H]2O[C@@H](C)Cn3c2c(C)c2ccccc23)c1
5. Cc1c2n(c3ccccc13)C[C@H](C)O[C@@H]2c1ccc(CC(C)C)cc1
6. Cc1c2n(c3ccccc13)C[C@H](C)O[C@H]2c1ccc(Cl)cc1

inactive
inactive
inactive
inactive
inactive
inactive

Your task in this section: give Activity for each listed record.
1. Cc1ccc([C@H]2O[C@@H](C)Cn3c2c(C)c2ccccc23)cc1
2. Cc1ccc([C@@H]2O[C@@H](C)Cn3c2c(C)c2ccccc23)cc1
3. CCc1ccc([C@H]2O[C@@H](C)Cn3c2c(C)c2ccccc23)cc1

inactive
inactive
inactive

====

Kindly supply the reported viability at 10 µM values for the records listed here.
Test system: SH-SY5Y
protocol-text: Neuroprotective activity against amyloid beta(25 to 35)-induced neurotoxicity in human SH-SY5Y cells assessed as cell viability at 10 uM (reference value: 62.1 +/- 2.2%)
Type: functional
condition-context: read-out: Activity
Remember to quote the unit after the number.

Reference set, count: 6
Cc1c2n(c3ccccc13)C[C@H](C)O[C@H]2c1ccc(CC(C)C)cc1 :: 96.2%
Cc1c2n(c3ccccc13)C[C@H](C)O[C@@H]2c1ccc(C(C)(C)C)cc1 :: 84.5%
CCc1ccc([C@H]2O[C@@H](C)Cn3c2c(C)c2ccccc23)cc1 :: 93%
Cc1c2n(c3ccccc13)C[C@@H](C)O[C@H]2c1ccc(F)cc1 :: 90.6%
Cc1c2n(c3ccccc13)C[C@H](C)O[C@H]2c1ccc(C(C)(C)C)cc1 :: 92.1%
Cc1c2n(c3ccccc13)C[C@H](C)O[C@@H]2c1ccc(Cl)cc1 :: 74.4%

For every item below, please supply its viability at 10 µM.
1. O=C(O[C@@H]1Cc2c(O)cc(O)cc2O[C@@H]1c1cc(O)c(O)c(O)c1)c1cc(O)c(O)c(O)c1 [EPIGALOCATECHIN GALLATE]
2. COc1ccccc1[C@@H]1O[C@@H](C)Cn2c1c(C)c1ccccc12
3. Cc1c2n(c3ccccc13)C[C@H](C)O[C@@H]2c1ccc(CC(C)C)cc1
4. Cc1cc(C)cc([C@@H]2O[C@@H](C)Cn3c2c(C)c2ccccc23)c1

1. 98.6%
2. 77.7%
3. 108%
4. 87.1%
